B1: AnkG linker ΔAI-c (aa 861–920) [rat] / AnkG 38–855 (AnkG MBD-AI-c protein; MBD + partial AI-c) [rat] (parent complex)
chain 1: KASAPEKLSDGEYISDGEEGEDAITGDTDKYLGPQDLKELGDDSLPAEGYVGFSLGARSA
chain 2: KSDANASYLRAARAGHLEKALDYIKNGVDVNICNQNGLNALHLASKEGHVEVVSELLQREANVDAATKKGNTALHIASLAGQAEVVKVLVTNGANVNAQSQNGFTPLYMAAQENHLEVVRFLLDNGASQSLATEDGFTPLAVALQQGHDQVVSLLLENDTKGKVRLPALHIAARKDDTKAAALLLQNDTNADIESKMVVNRATESGFTPLHIAAHYGNINVATLLLNRAAAVDFTARNDITPLHVASKRGNANMVKLLLDRGAKIDAKTRDGLTPLHCGARSGHEQVVEMLLDRAAPILSKTKNGLSPLHMATQGDHLNCVQLLLQHNVPVDDVTNDYLTALHVAAHCGHYKVAKVLLDKKANPNAKALNGFTPLHIACKKNRIRVMELLLKHGASIQAVTESGLTPIHVAAFMGHVNIVSQLMHHGASPNTTNVRGETALHMAARSGQAEVVRYLVQDGAQVEAKAKDDQTPLHISARLGKADIVQQLLQQGASPNAATTSGYTPLHLSAREGHEDVAAFLLDHGASLSITTKKGFTPLHVAAKYGKLEVASLLLQKSASPDAAGKSGLTPLHVAAHYDNQKVALLLLDQGASPHAAAKNGYTPLHIAAKKNQMDIATSLLEYGADANAVTRQGIASVHLAAQEGHVDMVSLLLSRNANVNLSNKSGLTPLHLAAQEDRVNVAEVLVNQGAHVDAQTKMGYTPLHVGCHYGNIKIVNFLLQHSAKVNAKTKNGYTPLHQAAQQGHTHIINVLLQNNASPNELTVNGNTALAIARRLGYISVVDTLKVVTEEIMTTTTITEKHKMNVPETMNEVLDMS

variants of: B1; test: ITC; parent: 1.6e+03 nM
Kindly state pKd for each of the entries shown.
// pKd is dimensionless: -log10 of concentration (M)

Exercise: Reported pKd for chain 2 I240Q, chain 2 L273Q : what is it?
Key: 5.41

Exercise: And then chain 2 F104Q, chain 2 F137Q , what is it?
Key: 5.59
